All figures here come from patent US20260355212A1.

measured_on: HCoV-NL63 Mpro (Human coronavirus NL63, UniProt P0C6X5)
Sequence (P0C6X5 2940-3242 limits assumed): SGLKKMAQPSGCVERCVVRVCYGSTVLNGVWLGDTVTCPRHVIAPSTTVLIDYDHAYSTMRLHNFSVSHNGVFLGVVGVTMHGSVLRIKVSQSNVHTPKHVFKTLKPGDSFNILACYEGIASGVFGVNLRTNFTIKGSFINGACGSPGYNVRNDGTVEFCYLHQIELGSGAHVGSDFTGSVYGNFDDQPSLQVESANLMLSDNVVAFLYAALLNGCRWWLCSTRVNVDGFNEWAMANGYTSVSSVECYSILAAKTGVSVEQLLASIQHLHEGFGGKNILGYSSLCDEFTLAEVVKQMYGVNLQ
assay_comment: HCoV-NL63 Mpro enzymatic inhibition assay (fluorescence)
Format: biochemical
# reported pIC50; entries follow
Schema: pIC50 number; meaning minus log10 of the concentration expressed in molar units.

CC1CC(C(=O)N2C[C@H]3[C@@H]([C@H]2C(=O)N[C@H](C=O)C[C@@H]2CCNC2=O)C3(C)C)C1 (stereo partly shown) = 5.80
O=C[C@H](C[C@@H]1CCNC1=O)NC(=O)[C@@H]1C[C@@H](Cc2cccc(Cl)c2)CN1C(=O)c1cc2ccccc2[nH]1 = 5.18
CC1(C)[C@@H]2[C@@H](C(=O)N[C@H](C=O)C[C@@H]3CCNC3=O)N(C(=O)c3cc4cc(S(C)(=O)=O)ccc4[nH]3)C[C@@H]21 = 7.32

[Q] Record request: pIC50 value, item O=C[C@H](C[C@@H]1CCNC1=O)NC(=O)[C@@H]1C[C@@H]2C[C@@H]2N1C(=O)c1cc2ccccc2[nH]1
[A] 6.66

[Q] Record request: pIC50 value, item N#Cc1cccc2cc(C(=O)N3C[C@H](C4CCCCC4)C[C@H]3C(=O)N[C@H](C=O)C[C@@H]3CCNC3=O)[nH]c12
[A] 6.12

[Q] Record request: pIC50 value, item CC1(C)[C@@H]2[C@@H](C(=O)N[C@H](C=O)C[C@@H]3CCNC3=O)N(C(=O)CC3CCCCC3(F)F)C[C@@H]21 (stereo partly shown)
[A] 6.98

[Q] Record request: pIC50 value, item CCc1cccc2[nH]c(C(=O)N3C[C@H]4[C@@H]([C@H]3C(=O)N[C@H](C=O)C[C@@H]3CCNC3=O)C4(C)C)cc12
[A] 7.31

[Q] Record request: pIC50 value, item O=C[C@H](C[C@@H]1CCNC1=O)NC(=O)[C@@H]1C[C@@H]2CCCC[C@@H]2N1C(=O)c1cc2ccccc2[nH]1
[A] 7.45

[Q] Record request: pIC50 value, item CC1(C)[C@@H]2[C@@H](C(=O)N[C@H](C=O)C[C@@H]3CCNC3=O)N(C(=O)c3cc4sccc4[nH]3)C[C@@H]21
[A] 7.30

[Q] Record request: pIC50 value, item CC1(C)[C@@H]2[C@@H](C(=O)N[C@H](C=O)C[C@@H]3CCNC3=O)N(C(=O)c3cc4cccc(Cl)c4[nH]3)C[C@@H]21
[A] 7.27

[Q] Record request: pIC50 value, item CC1(C)[C@@H]2[C@@H](C(=O)N[C@H](C=O)C[C@@H]3CCNC3=O)N(C(=O)c3cc4ccc(C#N)cc4[nH]3)C[C@@H]21
[A] 7.06

[Q] Record request: pIC50 value, item COc1ccc2cc(C(=O)N3C[C@H]4[C@@H]([C@H]3C(=O)N[C@H](C=O)C[C@@H]3CCNC3=O)C4(C)C)[nH]c2c1
[A] 7.22
